- assay comment: logP by potentiometric octanol/water titration
- Assay type: physicochemical
- measurement setup: octanol/water, pH 7.4

compound | logD
Oc1cccc2cccnc12 [8-HQ, 8-Hydroxyquinoline, reference compound] | 1.85

---

- assayed system: Human recombinant MMP-2 catalytic domain (Homo sapiens, UniProt P08253)
- Sequence (P08253 110-452 limits assumed): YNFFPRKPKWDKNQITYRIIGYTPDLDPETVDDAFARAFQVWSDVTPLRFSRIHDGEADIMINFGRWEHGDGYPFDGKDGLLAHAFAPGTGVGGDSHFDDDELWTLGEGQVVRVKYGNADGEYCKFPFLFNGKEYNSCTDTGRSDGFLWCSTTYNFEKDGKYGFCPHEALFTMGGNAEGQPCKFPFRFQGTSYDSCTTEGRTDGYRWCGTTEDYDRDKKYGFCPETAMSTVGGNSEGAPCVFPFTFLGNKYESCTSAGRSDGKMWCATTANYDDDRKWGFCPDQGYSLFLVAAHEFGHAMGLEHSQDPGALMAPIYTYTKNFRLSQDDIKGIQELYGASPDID
- assay comment: MMP-2 fluorogenic substrate inhibition assay

compound | measure unit | IC50
Oc1cccc2cccnc12 [8-HQ, 8-Hydroxyquinoline, reference compound] | µM | 166

---

- assayed system: Human recombinant MMP-2 catalytic domain (Homo sapiens)
- assay comment: MMP-2 fluorogenic substrate inhibition assay
- measurement setup: read-out: IC50 MMP-2; dose-response 10 μM to 1000 or 1500 μM (Figure S2)
pIC50: −log10 of the molar value.

smiles structure | pIC50
CS(=O)(=O)Nc1cccc2cccnc12 | 3.81
